System: HepG2-CANX-COX4
Assay: phenotypically active (imaging signature differs from DMSO and reproducible) at any of 0.3-9 uM (binary (1 = active, 0 = inactive)); higher = active
Conditions: treatment time: 24 h
Counter-ions that a name gives are not always drawn.
# output must be one of TRUE = active, FALSE = inactive

The examples below pair each entry with its known result.
Molecule	Assigned category
Cc1cnc(NC(=O)Nc2cc(Br)c(C)cc2OC[C@@H]2CNCCO2)cn1	TRUE
CN(C)CCOC(=O)C(c1ccccc1)C1(O)CCCC1 (stereo not drawn) [cyclopentolate]	FALSE
CC1(C)CCC(C)(C)c2cc(C(O)C(=O)Nc3ccc(C(=O)O)cc3F)ccc21 (stereo not drawn)	TRUE

Hello, I am checking results. What call was entered for COc1cc(C#N)ccc1S(=O)(=O)Nc1ccc2c(c1)cc(C)c(=O)n2C ?
FALSE

Hello, I am checking results. What call was entered for CC(C)c1cc(-c2n[nH]c(=O)n2-c2ccc3c(ccn3C)c2)c(O)cc1O [ganetespib] ?
TRUE

Hello, I am checking results. What call was entered for C[C@H]1[C@H](C)CC[C@]2(C(=O)O[C@@H]3O[C@H](CO[C@@H]4O[C@H](CO)[C@@H](O[C@@H]5O[C@@H](C)[C@H](O)[C@@H](O)[C@H]5O)[C@H](O)[C@H]4O)[C@@H](O)[C@H](O)[C@H]3O)CC[C@]3(C)C(=CC[C@@H]4[C@@]5(C)C[C@@H](O)[C@H](O)[C@@](C)(CO)[C@@H]5CC[C@]43C)[C@H]12 [Asiaticoside] ?
FALSE

Hello, I am checking results. What call was entered for CC(C)(Oc1ccc(C2CC2(Cl)Cl)cc1)C(=O)O (stereo not drawn) [ciprofibrate] ?
FALSE

Hello, I am checking results. What call was entered for COc1c(Cl)cc2c([nH]c3cnccc32)c1NC(=O)c1cccnc1C [ML 120B dihydrochloride] ?
TRUE

Hello, I am checking results. What call was entered for CCOC(=O)[C@H](CCc1ccccc1)N[C@@H](C)C(=O)N1CCC[C@H]1C(=O)O [enalapril] ?
FALSE

Hello, I am checking results. What call was entered for Nc1nccc2c1ncn2[C@@H]1C=C(CO)[C@@H](O)[C@H]1O [3-Deazaneplanocin A hydrochloride] ?
TRUE

Hello, I am checking results. What call was entered for C=C1CC[C@@H]2[C@](C)(CO)[C@H](O)CC[C@@]2(C)[C@@H]1C/C=C1/C(=O)OC[C@H]1O [Andrographolide] ?
TRUE

Hello, I am checking results. What call was entered for C=CC(=O)Nc1cccc(CN2C(=O)N(c3c(Cl)c(OC)cc(OC)c3Cl)Cc3cnc(NCCCCN(CC)CC)nc32)c1 [FIIN 1 hydrochloride] ?
TRUE

Hello, I am checking results. What call was entered for CN1[C@@H](CC(=O)c2ccccc2)CCC[C@H]1C[C@H](O)c1ccccc1 [Lobeline alpha (-) hydrochoride] ?
FALSE
